# EXPERIMENT: qHTS of pediatric cancer cell lines to identify multiple opportunities for drug repurposing: Primary screen for NB-EBc1 cells (AID 1347095); also: potency is read from the fitted curve at half-maximal effect
# EXPERIMENTAL CONTEXT: NB-EBc1 neuroblastoma viability, CellTiter-Glo luminescence, 48 h; series mostly up to 46 µM
Results filed as inconclusive are left out. Calls of active or inactive are those of the source. Calls follow the shape of the dose curve; as a rule, active = well fitted cell-killing curve with a large enough effect; inconclusive = small, poorly fitted or top-dose-only effect; inactive = no such curve, though single readings can be large or run the other way.
MEASURED METRIC: Potency

Known Potency results, listed for orientation:
CC(C)(C)OC(=O)N[C@H]1CCCCCC=C[C@@H]2C[C@@]2(C(=O)NS(=O)(=O)C2CC2)NC(=O)[C@@H]2C[C@@H](OC(=O)N3Cc4cccc(F)c4C3)CN2C1=O	inactive
COc1ccc(-c2oc3c(CC=C(C)C)c(OC4O[C@H](CO)[C@@H](O)[C@H](O)[C@@H]4O)cc(O)c3c(=O)c2OC2O[C@@H](C)[C@H](O)[C@@H](O)[C@@H]2O)cc1 (stereo partly specified)	23.5 µM (active)
CC1(C)Cc2c(sc(NC(=S)NC(=O)c3ccccc3)c2C(=O)O)CO1	inactive
CNC(=O)c1ccc2cc(C3(O)CCn4cncc43)ccc2c1 (stereo unspecified)	inactive
CCN(CC)CCOc1ccc(C(=C(Cl)c2ccccc2)c2ccccc2)cc1	inactive
CC1(C)O[C@H]2C[C@@H]3[C@H]4CCC5=CC(=O)C=C[C@]5(C)[C@@]4(F)[C@@H](O)C[C@]3(C)[C@]2(C(=O)CO)O1	2.35 µM (active)
CN(C)c1cc(NC(=O)CNC(C)(C)C)c(O)c2c1C[C@@H]1C[C@H]3[C@H](N(C)C)C(=O)C(C(N)=O)=C(O)[C@@]3(O)C(=O)C1=C2O	inactive
Clc1ccc(C(c2ccc(Cl)cc2)n2cc[n+](CC(OCc3ccc(Cl)cc3Cl)c3ccc(Cl)cc3Cl)c2)cc1 (stereo unspecified)	23.5 µM (active)
CC[C@H]1OC(=O)[C@H](C)[C@@H](O[C@H]2C[C@@](C)(OC)[C@@H](O)[C@H](C)O2)[C@H](C)[C@@H](O[C@@H]2O[C@H](C)C[C@H](N(C)C)[C@@H]2O)[C@](C)(O)C[C@@H](C)CN(C)[C@H](C)[C@@H](O)[C@]1(C)O	inactive
CN(C)C1CCN(C(=O)c2ccc(NC(=O)Nc3nc(N4CCOCC4)nc(N4CCOCC4)n3)cc2)CC1	1.32 µM (active)

-- ask Recall and state the measured Potency for Cn1c(N2CCCCS2(=O)=O)nc(C(=O)NCc2ccc(F)cc2)c(O)c1=O .
-- reply inactive

-- ask Please indicate Potency recorded for Cc1ccc(C(=O)Nc2cccc(C(F)(F)F)c2)cc1Nc1nc(-c2cccnc2)nc2c1cnn2C
-- reply 8.33 µM (active)

-- ask Tell me measured Potency for C[N+](C)(C)CCCCCC[N+](C)(C)C please.
-- reply inactive

-- ask Provide one value: measured Potency of O=C1C[C@@H](c2ccc(O)cc2)Oc2cc(O)cc(O)c21
-- reply inactive

-- ask Hello, please tell me recorded Potency for this one: COc1cc(O)c2c(c1)C(=O)c1cc(C)cc(O)c1C2=O
-- reply inactive

-- ask State, in one line, measured Potency of C[C@@H](O)[C@H]1C(=O)N2C(C(=O)O)=C(S[C@@H]3CN[C@H](C(=O)N(C)C)C3)[C@H](C)[C@H]12
-- reply inactive
